All values here come from ChEMBL document CHEMBL1150393.

- System: Pancreas
- assay procedure: Biodistribution in pancreas of C57BL/6 mouse bearing mouse B16-F0 cells at 0.74 to 0.92 MBq, iv after 1 hr
- Assay type: ADME, organism-based
- reported conditions: in vivo
Hi there, I'd appreciate the recorded Drug uptake for every entry that follows.
Form entry: value (% ID/g) — number only.

get_value(item= CCN(CC)CCNC(=O)c1cnc2cc([125I])ccc2n1.Cl.Cl , readout=Drug uptake) returns 7.6

The molecule CCN(CC)CCNC(=O)c1ccc2cc([125I])ccc2n1.Cl.Cl showed Drug uptake equal to 9.8

Note to self: Drug uptake recorded for CCN(CC)CCNC(=O)c1ccc([125I])nc1.Cl.Cl was 3.94

Lab book: Drug uptake of CCN(CC)CCNC(=O)c1ccc2cc([125I])ccc2c1.Cl noted as 10.18

----------
- assay procedure: Ratio of drug level in tumor to liver of C57BL/6 mouse bearing mouse B16-F0 cells at 0.74 to 0.92 MBq, iv after 6 hrs
- Assay type: ADME, organism-based
- reported conditions: in vivo
quantity kind: Ratio

Field Ratio (entry CCN(CC)CCNC(=O)c1ccc2cc([125I])ccc2n1.Cl.Cl ) reads 2.42

// Ratio value for CCN(CC)CCNC(=O)c1ccc2cncc([125I])c2n1.Cl.Cl : 7.69

Recorded result, CCN(CC)CCNC(=O)c1c[nH]c2ccc([125I])cc2c1=O.Cl.Cl , Ratio: 18.16

Looking up CCN(CC)CCNC(=O)c1nc2cc([125I])ccc2[nH]1.Cl.Cl , I see its Ratio listed as 2.93

Sample CCN(CC)CCNC(=O)c1cc2cc([125I])ccc2o1.Cl ; Ratio observed: 4.41

// Ratio value for CCN(CC)CCNC(=O)c1ccc2cc([125I])ccc2c1.Cl : 3.28

For CCN(CC)CCNC(=O)c1cc2c([125I])cccc2cn1.Cl.Cl the molecule record lists Ratio as 5.14

Query CCN(CC)CCNC(=O)c1ccc([125I])nc1.Cl.Cl yields Ratio of 3.33

Input CCN(CC)CCNC(=O)c1cnc2cc([125I])ccc2n1.Cl.Cl . Output Ratio: 5.4

Query CCN(CC)CCNC(=O)c1cc2cc([125I])ccc2[nH]1.Cl yields Ratio of 2.71

----------
Exercise: state measured Drug uptake for each of the compounds provided.
- Tested on: Thyroid gland
- assay procedure: Biodistribution in thyroid of C57BL/6 mouse bearing mouse B16-F0 cells at 0.74 to 0.92 MBq, iv after 3 hrs
- Assay type: ADME, organism-based
- reported conditions: in vivo
Write down the numeric answer in % ID/g and omit the unit.

Record summary for CCN(CC)CCNC(=O)c1cc2c([125I])cccc2s1.Cl : reported Drug uptake = 67.21

Consider CCN(CC)CCNC(=O)c1ccc([125I])nc1.Cl.Cl . Its measured Drug uptake is 59.09

Drug uptake recorded for this compound, CCN(CC)CCNC(=O)c1nc2cc([125I])ccc2[nH]1.Cl.Cl , is 63.44

Lab note: measured Drug uptake of CCN(CC)CCNC(=O)c1cc2cc([125I])ccc2o1.Cl was 22.43

For CCN(CC)CCNC(=O)c1c[nH]c2ccc([125I])cc2c1=O.Cl.Cl the compound record lists Drug uptake as 4.33

The compound CCN(CC)CCNC(=O)c1cnc2cc([125I])ccc2n1.Cl.Cl showed Drug uptake equal to 39.76

# Drug uptake (compound: CCN(CC)CCNC(=O)c1ccc2cncc([125I])c2n1.Cl.Cl ) is 41.44

Entry CCN(CC)CCNC(=O)c1cc2c([125I])cccc2cn1.Cl.Cl ; Drug uptake = 35.71
